Please provide measured Dmax at 3 µM for the entries that follow.
assayedTarget: MycN (Homo sapiens)
Construct: endogenous in cells; host or cells: SK-N-BE(2)
Sequence (P04198 1-464): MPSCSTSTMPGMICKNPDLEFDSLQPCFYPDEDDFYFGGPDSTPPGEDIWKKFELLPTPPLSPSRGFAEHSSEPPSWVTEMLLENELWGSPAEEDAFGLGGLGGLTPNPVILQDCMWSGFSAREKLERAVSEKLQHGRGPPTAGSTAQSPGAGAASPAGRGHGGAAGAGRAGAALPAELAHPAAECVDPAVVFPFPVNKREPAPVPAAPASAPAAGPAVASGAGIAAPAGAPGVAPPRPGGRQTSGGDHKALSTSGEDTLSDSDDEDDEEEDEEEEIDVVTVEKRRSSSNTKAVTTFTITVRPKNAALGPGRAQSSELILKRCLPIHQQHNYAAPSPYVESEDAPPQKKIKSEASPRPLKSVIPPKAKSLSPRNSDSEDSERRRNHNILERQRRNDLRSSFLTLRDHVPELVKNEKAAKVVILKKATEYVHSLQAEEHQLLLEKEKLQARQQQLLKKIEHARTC
experimentDescription: Degradation of MycN protein in SK-N-BE(2) cells, JESS/Western blot of lysates
Type: cell-based
recordedConditions: SKNBE2, 24 h, SKNBE2 cells, 24 h, 3 μM; read-out: % Degradation of MycN (SKNBE2) 24 h, 3 μM

Requested field: Dmax at 3 µM. Item: CN1CC(C2CCN(c3nccc(Nc4cc(C5CCCC5)[nH]n4)n3)C2)C1 (stereo not drawn) [Compound 27]
50 to 79%

Likewise for CN1CC(C2CCN(c3nccc(Nc4cc(C5CC5)[nH]n4)n3)C2)C1 (stereo not drawn) [Compound 38] ?
20 to 49%

Same question, NCC1CCN(c2nccc(Nc3cc(C4CC4)[nH]n3)n2)CC1 [Compound 10] this time
80 to 100%

COC1CN(CC23CC(C2)N(c2nccc(Nc4cc(C5CCCC5)[nH]n4)n2)C3)C1 [Compound 177] ?
50 to 79%

Same for c1cc(Nc2cc(C3CCCC3)[nH]n2)nc(N2CC3(CCCNC3)C2)n1 [Compound 106]
20 to 49%

Follow-up item: c1cc(Nc2cc(C3CC3)[nH]n2)nc(N2C[C@H]3CNC[C@H]3C2)n1 [Compound 18]
80 to 100%

Then what about the molecule CNC[C@@H]1CCCN(c2nccc(Nc3cc(C4CC4)[nH]n3)n2)C1 [Compound 37] ?
50 to 79%

Next: O=C1c2ccccc2C(=O)N1CC12CC(CN(c3nccc(Nc4cc(C5CC5)[nH]n4)n3)C1)C2 [Compound 126]
80 to 100%

Try the molecule NC[C@H]1CN(c2nccc(Nc3cc(C4CCCC4)[nH]n3)n2)C[C@H]1F [Compound 123-2]
50 to 79%

Repeat with CN1CC2(CCCN(c3nccc(Nc4cc(C5CC5)[nH]n4)n3)C2)C1 [Compound 43]
20 to 49%

And what about the molecule CNC[C@H]1CN(c2nccc(Nc3cc(C4CC4)[nH]n3)n2)C[C@H]1F [Compound 191] ?
80 to 100%

One more molecule: CN(C)CCCNc1nccc(Nc2cc(C3CC3)[nH]n2)n1 [Compound 20]
20 to 49%

# repeat for CNCC12CCC(C1)N(c1nccc(Nc3cc(C4CC4)[nH]n3)n1)C2 (stereo not drawn) [Compound 45]
80 to 100%

Similarly, CNCC12CC(C1)N(c1nccc(Nc3cc(C4CC4)[nH]n3)n1)C2 [Compound 14] ?
20 to 49%

Similarly, CNC1CC2(C1)CN(c1nccc(Nc3cc(C4CC4)[nH]n3)n1)C2 [Compound 1] ?
< 20%

Repeat with CNCC12CC(C1)N(c1nccc(Nc3cc(C4CCCC4)[nH]n3)n1)C2 [Compound 31]
80 to 100%

And what about the molecule CNCC12CC(C1)N(c1nc3c(c(Nc4cc(C5CCCC5)[nH]n4)n1)CCC3)C2 [Compound 183] ?
80 to 100%

Please do the same for c1cc(Nc2cc(C3CC3)[nH]n2)nc(N2CC3(CCNC3)C2)n1 [Compound 25] as well.
20 to 49%
